- Tested on: LOX IMVI
- procedure details: NCI tumour cell line growth inhibition, 48 h
The source made the active and inactive calls. Rule as the data show it: active = GI50 up to about 1.1 µM and inactive = higher.
Catalogue of GI50 values

Solved entries (count: 2):
>  <molecule>
COc1ccc(/C=C2\CCC(C)C3C2=NN(c2ccccc2)C3c2ccc(OC)c(OC)c2)cc1OC (stereo not drawn)

>  <GI50>
2.49 µM (inactive)

$$$$
>  <molecule>
CC(=O)OCC1=C2C(OC(=O)C(C)C)CC3(COC(C)=O)OC3/C=C\C3(C)OC3C2OC1=O (stereo not drawn)

>  <GI50>
> 100 µM (inactive)

$$$$

Let us examine a further case.
The reported value for COc1cccc2c1Cc1cc(-c3ccccc3)[n+](C)n1-2 in terms of GI50 is 10 µM (inactive)

====

GI50 for assorted compounds
- Test system: SF-268
- procedure details: NCI tumour cell line growth inhibition, 48 h
Calls of active or inactive are those of the source. Rule as the data show it: active = GI50 up to about 1.1 µM and inactive = higher.

Some compounds with known GI50 results, for comparison:
>  <sample smiles>
O=C(NCCN1CCOCC1)c1ccc(I)cc1

>  <GI50>
> 100 µM (inactive)

$$$$
>  <sample smiles>
Nc1ccc(Oc2ccc(C34CC5CC(C3)CC(c3ccc(Oc6ccc(N)cc6C(F)(F)F)cc3)(C5)C4)cc2)c(C(F)(F)F)c1

>  <GI50>
17.4 µM (inactive)

$$$$
>  <sample smiles>
Cc1nc(C)c(N2CCN(C(=O)O)CC2)c(O)n1

>  <GI50>
> 100 µM (inactive)

$$$$

Consider Oc1ccccc1/C=N/c1ccccc1/N=C/c1ccccc1O . Its measured GI50 is 88.1 µM (inactive)

====

- Tested on: MDA-N
- procedure details: NCI tumour cell line growth inhibition, 48 h
Calls of active or inactive are those of the source. Cut-off read from the data, not from the text of the source: active = GI50 up to about 1.1 µM and inactive = higher.
metric name: GI50

>  <sample smiles>
Cc1ccc(-c2cc(-c3ccccc3)nc(N)n2)c(O)c1

>  <metric name>
GI50

>  <reported value>
4.78 µM (inactive)

$$$$
>  <sample smiles>
Oc1nc(S)nc(SCc2c(Cl)c(Cl)c(Cl)c(Cl)c2Cl)n1

>  <metric name>
GI50

>  <reported value>
47.4 µM (inactive)

$$$$
>  <sample smiles>
O=C1NC(=S)NC(=O)C1=C(O)Nc1ccccc1

>  <metric name>
GI50

>  <reported value>
30 µM (inactive)

$$$$

GI50 in this record for CCOC(=O)/C(=C/NC(=S)Nc1c(CC)cccc1C(C)(C)C)C(=O)c1ccccc1 : > 100 µM (inactive)

====

Documented GI50 across a set of compounds
- Test system: UACC-62
- procedure details: NCI tumour cell line growth inhibition, 48 h
Active and inactive are the calls of the source. No stated cut-off is given here; in the data, active = GI50 up to about 1.1 µM and inactive = higher.

These solved cases illustrate the format of a correct answer.
>  <compound>
N=c1[nH]cnc2c1nnn2C1C=CC(COS(N)(=O)=O)C1 (stereo not drawn)

>  <GI50>
3.37 µM (inactive)

$$$$
>  <compound>
CC(=O)c1cccc(NC(=O)C(=O)C(C2OC(=O)c3ccccc32)[N+](=O)[O-])c1 (stereo not drawn)

>  <GI50>
> 100 µM (inactive)

$$$$

GI50 for Clc1nc2c(-c3cccs3)ncnc2n1Cc1ccccc1 is 72.3 µM (inactive)

====

- System: HL-60
- procedure details: NCI tumour cell line growth inhibition, 48 h
Structures can show the parent of a compound that is named as a salt. Activity calls are given as the source filed them. No stated cut-off is given here; in the data, active = GI50 up to about 1.1 µM and inactive = higher.
Your answer must be one of the following: class 1 for active, class 0 for inactive

>  <molecule>
COc1ccc(-c2oc3cc(O)cc(O)c3c(=O)c2OC)cc1 [ERMANIN]

>  <class>
class 0

$$$$
>  <molecule>
COc1nc2ccc(Cl)c(C(O)c3ccccc3)c2nc1OC (stereo unspecified)

>  <class>
class 0

$$$$
>  <molecule>
O=[N+]([O-])c1ccc([I+]c2ccccc2)cc1

>  <class>
class 0

$$$$
>  <molecule>
CCOC(=O)C1C(=O)CC(C)(O)C(C(=O)OCC)C1c1ccc(O)c(OC)c1 (stereo unspecified)

>  <class>
class 0

$$$$
>  <molecule>
ClC(Cl)[Si]12OCCN(CCO1)CCO2

>  <class>
class 0

$$$$
>  <molecule>
CC1=C(C#N)C23C(=O)c4ccccc4C(=O)C2=C(O)C=CC3(O)N1 (stereo unspecified)

>  <class>
class 1

$$$$
>  <molecule>
Nc1ccc(Oc2ccc(C34CC5CC(C3)CC(c3ccc(Oc6ccc(N)cc6C(F)(F)F)cc3)(C5)C4)cc2)c(C(F)(F)F)c1

>  <class>
class 0

$$$$
>  <molecule>
CCCCOC(=O)NC(=O)c1cn(CCSCCOC(=O)NCCCCCCNC(=O)OCCSCCn2cc(C(=O)NC(=O)OCCCC)c(=O)[nH]c2=O)c(=O)[nH]c1=O

>  <class>
class 0

$$$$
>  <molecule>
Cc1ccc(NC(Nc2ccc(C)cc2C)=C(/C=C(\Cl)[N+](=O)[O-])[N+](=O)[O-])c(C)c1

>  <class>
class 1

$$$$
>  <molecule>
CCCOc1ccc(-c2nc(-c3ccc(/N=C/c4ccc(N(CCOS(C)(=O)=O)CCOS(C)(=O)=O)cc4C)cc3)cs2)cc1

>  <class>
class 0

$$$$

Challenge: Lab log entry: Cc1cc(C)cc(Nc2nnc3n2S(=O)(=O)c2cc(C#N)c(Cl)cc2S3)c1 — outcome as called in the assay?
Response given: class 0

Challenge: Lab log entry: O=C1c2c(O)ccc(O)c2C(=O)c2c(NCCNCCO)ccc(NCCNCCO)c21 [MITOXANTRONE HYDROCHLORIDE] — outcome as called in the assay?
Response given: class 1

Challenge: In this assay, the call recorded for O=C(c1ccccc1)c1ccc2c(c1)N=C(c1ccc(Cl)c(Cl)c1)CC(c1ccc3ccccc3c1)N2 (stereo unspecified) was what?
Response given: class 0

Challenge: Please state the recorded outcome for this molecule: CCOC(=O)c1ccc(/N=C/C=C(\Nc2ccc(C(=O)OCC)cc2)c2ccc3ccccc3c2)cc1
Response given: class 0

Challenge: Record lookup: outcome of this test for Cc1cccc(/C=N/NC(=S)NC(C)(C)C)n1 ?
Response given: class 0

Challenge: Lab log entry: N#C[BH2-][n+]1ccc(C(=O)NNCc2ccccc2)cc1 — outcome as called in the assay?
Response given: class 0

====

- System: LOX IMVI
- procedure details: NCI tumour cell line growth inhibition, 48 h
Calls of active or inactive are those of the source. Rule as the data show it: active = GI50 up to about 1.1 µM and inactive = higher.
Select the correct class. Options are active, inactive and nothing else.

Challenge: Kindly provide the recorded test outcome for the following molecule: CCOC(=O)/C(=C\c1c(C)[nH]c2ccccc12)P(=O)(OCC)OCC
Response given: inactive

Challenge: Please indicate how the test categorized c1ccc(Sc2nc(Sc3ccccc3)nc(Sc3ccccc3)n2)cc1 .
Response given: inactive

Challenge: So what was the verdict on CO[C@H]1C[C@H](O[C@H]2CC[C@]3(C=O)[C@H]4CC[C@]5(C)[C@@H](C6=CC(=O)OC6)CC[C@]5(O)[C@@H]4CC[C@]3(O)C2)O[C@H](C)[C@H]1O in this test?
Response given: active

Challenge: Answer briefly: the call reported for COc1cc(/C=N\N(C)C)cc(/C=N/N(C)C)c1O in this assay.
Response given: inactive

Challenge: Given CCN(C1=CC(=O)NC2CCCCN12)c1ccccc1 (centres undefined) , state the outcome it received in this test.
Response given: inactive

Challenge: Hi, sorry to bother you, what did the test record for CC(=O)OC1c2ccccc2CC2(OC(C)=O)c3ccccc3C12 (centres undefined) ?
Response given: inactive

Challenge: Each molecule tested received a call. Report the one for C1=C(c2ccccc2)C(N2CCOCC2)Oc2ccccc21 (centres undefined) .
Response given: inactive

====

- Test system: OVCAR-4
- procedure details: NCI tumour cell line growth inhibition, 48 h
Activity calls are given as the source filed them. Cut-off read from the data, not from the text of the source: active = GI50 up to about 1.1 µM and inactive = higher.
# maps each entry to its GI50

Here's what some known entries look like.
>  <compound>
S=C(Nc1ccccc1)N(/N=C/C=C/c1ccccc1)c1nnc(-c2ccccc2)c(-c2ccccc2)n1

>  <GI50>
30.5 µM (inactive)

$$$$
>  <compound>
N#C[BH2-][n+]1ccc(C(=O)NNCc2ccccc2)cc1

>  <GI50>
> 100 µM (inactive)

$$$$
>  <compound>
CN(C)c1ccc2oc(=O)c3ccccc3c2c1

>  <GI50>
> 100 µM (inactive)

$$$$
>  <compound>
OCC1OC(c2cccc3cc(O)c(O)cc23)CC1O (stereo not given)

>  <GI50>
> 100 µM (inactive)

$$$$
>  <compound>
O=C1NC2=NOC(=O)NC2=NO1

>  <GI50>
> 200 µM (inactive)

$$$$
>  <compound>
O=C(CSc1nnc(-c2ccc(/N=C\c3ccc(Cl)cc3)cc2)o1)Nc1cccc(Cl)c1

>  <GI50>
> 100 µM (inactive)

$$$$
>  <compound>
O=C1Oc2ccccc2C(=O)/C1=C/N1C(=O)/C(=C/c2ccc([N+](=O)[O-])cc2)SC1=S

>  <GI50>
20.8 µM (inactive)

$$$$
>  <compound>
CN(C)c1ccc(/C=C2\N=C(N/N=C/c3ccccc3)NC2=O)cc1

>  <GI50>
60.1 µM (inactive)

$$$$

The recorded GI50 for COc1cccc(CC2C(=O)N/C(=N\C(C)=O)N2C)c1OC(C)=O (stereo not given) is > 100 µM (inactive)

Reported GI50 ( O=[N+]([O-])c1cccc(CSc2nc(O)c3nc[nH]c3n2)c1 ) = > 100 µM (inactive)

Record CCOC(=O)CC1c2ccc(O)cc2OC(=O)C1c1ccc([N+](=O)[O-])cc1 (stereo not given) , field GI50: 27.7 µM (inactive)

get_value(item= Cc1csc(N/C=C2\C(=O)Oc3ccccc3C2=O)n1 , readout=GI50) returns 32.7 µM (inactive)

In plain terms, CC(=O)Nc1ccc(C2CC(c3ccc([N+](=O)[O-])cc3)=Nc3ccccc3S2)cc1 (stereo not given) has a documented GI50 of 19.7 µM (inactive)

According to the records, this compound CN1CCN(CCSC2Cc3cc(Cl)ccc3Sc3ccccc32)CC1 (stereo not given) displays GI50 of 6.81 µM (inactive)

Please fill in: GI50 reported for COC(=O)[C@H]1[C@@H](O)[C@@]2(O)c3c(OC)cc(OC)cc3O[C@@]2(c2ccc3c(c2)OCO3)[C@@H]1c1ccccc1 = 0.0149 µM (active)

# GI50 of CCC1(N=[N+]=[N-])C(=O)c2ccccc2N(c2ccccc2)C1=O (stereo not given) = > 100 µM (inactive)
